Where do the numbers come from? From patent US20240238445A1.

Biological target: FAM19A5 protein (Homo sapiens, UniProt Q7Z5A7)
Assay: competitive inhibition ELISA; competitor: coated LRRC4B(453-576)-hFc
MEASURED PROPERTY: Inhibition rate (%)

BINDER | MEASUREMENT UNIT | READOUT NUMBER
GYTYFTTVTVETLATQPGEE [FB-20[A13]] | % | 27.2
GYTYFTTVAVETLETQPGEE [FB-20[A8]] | % | -0.4
GYTYFATVTVETLETQPGEE [FB-20[A5]] | % | 22.2
GYTYFTTVTVNTLETQPGEE [FB-20[N10]] | % | 10.8
GYTYFNTVTVETLETQPGEE [FB-20[N5]] | % | 30.5
GYTYFTTATVETLETQPGEE [FB-20[A7]] | % | 7.9
GYTYFTAVTVETLETQPGEE [FB-20[A6]] | % | 11
GYTYFTTVTVATLETQPGEE [FB-20[A10]] | % | 6.4
GYNYFTTVTVETLETQPGEE [FB-20[N2]] | % | -2
GYAYFTTVTVETLETQPGEE [FB-20[A2]] | % | -0.4
GYTYFTTVTNETLETQPGEE [FB-20[N9]] | % | 6.5
GYTYFTTNTVETLETQPGEE [FB-20[N7]] | % | 8.3
GYTYFTTVTAETLETQPGEE [FB-20[A9]] | % | 3.8
GYTYFTTVTVENLETQPGEE [FB-20[N11]] | % | 55.6
GYTYFTTVTVEALETQPGEE [FB-20[A11]] | % | 50.3
GYTYATTVTVETLETQPGEE [FB-20[A4]] | % | 1.5
GYTYFTNVTVETLETQPGEE [FB-20[N6]] | % | -0.4
